Record form. Attribute: koff. Fill in for each entry.
molecular target: T1, human IL-8 (human, UniProt P10145 23-99, limits assumed); assay: SPR Biacore T200, Protein A/G capture, pH 5.8, 37C;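 note: antibodies captured by Protein A/G amine-coupled onto a CM4 sensor chip, with kinetic parameters derived using Biacore T200 Evaluation Software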
T1 construct: also called hIL-8; hIL8
T1 sequence (P10145 23-99 limits assumed): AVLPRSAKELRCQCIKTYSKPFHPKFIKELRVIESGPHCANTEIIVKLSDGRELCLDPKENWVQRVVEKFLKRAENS
Answer format reminder: number followed by unit.

H1000/L0395 (antibody, human IgG1, kappa, name in Kabat numbering, V domains shown) VH: QVQLVESGGGLVQPGGSLRLSCAASGFTFSEYYLSWVRQAPGKGLEWVGLIRNKDNHHTPEYSASVKGRFTISRDDSKNSLYLTMSDLKTEDTAVYYCARENHRYDVELAYWGQGTLVTVSS VL: DIQMTQSPSSLSASVGDRVTITCRASEIIYSYLAWYQQKPGKAPKLLIYKAKTHADGVPSRFSGSGSGTDFTFTISSLQPEDIATYYCKHHFGFPRTFGQGTKVEIKR = 0.02 s⁻¹

Then this binder:
Qu. Give its koff value. Item: H1032/L0395 (antibody, human IgG1, kappa, name in Kabat numbering, V domains shown) VH: QVQLVESGGGLVQPGGSLRLSCAASGFTFDKYYLSWVRQAPGKGLEWVGLIRNKDNGYHPEYSASVKGRFTISRDDSKNSLYLTMSDLKTEDTAVYYCARENHRYDVELAYWGQGTLVTVSS VL: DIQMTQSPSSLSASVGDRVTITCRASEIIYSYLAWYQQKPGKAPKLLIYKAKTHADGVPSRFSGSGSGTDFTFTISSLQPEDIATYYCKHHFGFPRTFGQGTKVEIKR
Ans. 0.0041 s⁻¹
